Target: Cytochrome P450 2C9 (Homo sapiens) (UniProt P11712)
Sequence (P11712 whole entry, looked up): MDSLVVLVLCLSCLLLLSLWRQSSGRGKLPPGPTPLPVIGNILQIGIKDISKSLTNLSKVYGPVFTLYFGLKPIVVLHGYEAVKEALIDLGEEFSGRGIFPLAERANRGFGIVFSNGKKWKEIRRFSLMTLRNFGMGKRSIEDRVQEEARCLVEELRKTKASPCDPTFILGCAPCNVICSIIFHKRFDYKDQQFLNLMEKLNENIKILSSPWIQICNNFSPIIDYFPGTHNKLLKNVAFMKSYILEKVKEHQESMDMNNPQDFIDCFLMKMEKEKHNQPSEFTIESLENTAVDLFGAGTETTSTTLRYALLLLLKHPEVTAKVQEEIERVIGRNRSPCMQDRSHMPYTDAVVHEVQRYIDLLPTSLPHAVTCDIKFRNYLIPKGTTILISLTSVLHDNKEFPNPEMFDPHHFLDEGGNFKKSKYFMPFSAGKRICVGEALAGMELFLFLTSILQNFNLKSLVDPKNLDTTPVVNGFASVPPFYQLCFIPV
Test: Cytochrome P450 Family 2 Subfamily C Member 9 (CYP2C9) small molecule antagonists: luciferase reporter qHTS assay (AID 1671198); note: nearly all actives have a fitted effect of over 50% in size
Settings: P450-Glo CYP2C9 enzyme assay, luciferin luminescence; series mostly up to 115 µM
Results filed as inconclusive are left out. Active and inactive are the calls of the source. Calls come from the whole dose curve; as a rule, active = well fitted inhibition curve with a large enough effect in the repeat runs; inconclusive = weak or mixed curves; inactive = no such curve, though single readings can be large or run the other way.
Select the correct class. Options are active, inactive and nothing else.

| COMPOUND | LABEL CLASS |
| --- | --- |
| CCCC[C@H]1CN(CC2CCOCC2)C(=O)OC12CCN(C1(C)CCN(C(=O)c3c(C)ncnc3C)CC1)CC2 | inactive |
| CC[C@H](C)[C@@H](C(=O)O)n1sc2ccccc2c1=O | inactive |
| CCCc1ccccc1 | inactive |
| Cc1ccc(C(N)=O)cc1N | inactive |
| Nc1nc(N)c(-c2ccccc2)s1 | inactive |

[Q] // outcome(item) with item = Cc1cc(O)ccc1N
[A] active

[Q] Follow-up entry: C=CC(C)(CCC=C(C)C)OC(=O)c1ccccc1 (centres undefined)
[A] active

[Q] Follow-up entry: N#Cc1cc2ccccc2c2ccccc12
[A] active

[Q] Follow-up entry: CCCCC(CC)COCCCN (centres undefined)
[A] active

[Q] Follow-up entry: Cn1c(NCCN(CCO)CCCc2ccc([N+](=O)[O-])cc2)cc(=O)n(C)c1=O
[A] inactive

[Q] Follow-up entry: O=C(O)[C@@H]1[C@H]2C[C@H]3c4[nH]c5ccccc5c4CCN3C[C@@H]2CC[C@@H]1O
[A] inactive

[Q] Follow-up entry: N#Cc1c(F)cccc1F
[A] inactive

[Q] Follow-up entry: COC(=O)C(C)=O
[A] inactive

[Q] Follow-up entry: CC(C)c1ccc2c(C(C)C)cc(C(C)C)c(S(=O)(=O)O)c2c1
[A] active

[Q] Follow-up entry: CCN(CC)CCc1nc(-c2ccccc2)no1
[A] inactive

[Q] Follow-up entry: COc1ccc([C@@H]2Sc3ccccc3N(CCN(C)C)C(=O)[C@@H]2OC(C)=O)cc1
[A] inactive

[Q] Follow-up entry: CCOc1ccc2[nH]cc(C(=O)NCc3ccccc3)c(=O)c2n1
[A] active

[Q] Follow-up entry: O=C(O)C1CCC(C(=O)O)CC1 (centres undefined)
[A] inactive

[Q] Follow-up entry: CC(C(=O)O)c1ccc(C(=O)c2ccccc2)s1 (centres undefined)
[A] active

====

Assay: qHTS assay to identify small molecule agonists of the sonic hedgehog signaling (Shh) pathway - cell viability counter screen (AID 1259366); note: nearly all actives have a fitted effect of over 50% in size
Conditions: NIH/3T3 Gli1-Luc viability, CellTiter-Fluor, 24 h; series mostly up to 92.4 µM
Inconclusive results are not listed. Activity calls are given as the source filed them. The call rests on the fitted dose curve; in most records, active means well fitted cell-killing curve with a large enough effect in the repeat runs; inconclusive means weak or mixed curves, or effect the other way; inactive means flat fitted curve, though single readings scatter.
Select the correct class. Options are 1 (yes) (active), 0 (no) (inactive) and nothing else.

[Q] // outcome(item) with item = CC(C)(C)c1cc(O)c(C(C)(C)C)cc1O
[A] 1 (yes)

[Q] Follow-up entry: C[Si](C)O[Si](C)(C)O[Si](C)(C)O[Si](C)C
[A] 0 (no)

[Q] Follow-up entry: CNCC[C@@H](Oc1ccccc1C)c1ccccc1
[A] 0 (no)
